Reported total protein half-life in vivo values are given for each entry in this list.
# test details: total protein half-life in vivo (active degradation + dilution); higher = more stable protein
# experimental context: E. coli NCM3722 delta-clpP; growth: N-lim chemostat; doubling time 6 h

sequence record: MIAIADILQAGEKLTAVAPFLAGIQNEEQYTQALELVDHLLLNDPENPLLDLVCAKITAWEESAPEFAEFNAMAQAMPGGIAVIRTLMDQYGLTLSDLPEIGSKSMVSRVLSGKRKLTLEHAKKLATRFGISPALFID
total protein half-life in vivo (h): 1.51
//
sequence record: MRVLLAPMEGVLDSLVRELLTEVNDYDLCITEFVRVVDQLLPVKVFHRICPELQNASRTPSGTLVRVQLLGQFPQWLAENAARAVELGSWGVDLNCGCPSKTVNGSGGGATLLKDPELIYQGAKAMREAVPAHLPVSVKVRLGWDSGEKKFEIADAVQQAGATELVVHGRTKEQGYRAEHIDWQAIGDIRQRLNIPVIANGEIWDWQSAQQCMAISGCDAVMIGRGALNIPNLSRVVKYNEPRMPWPEVVALLQKYTRLEKQGDTGLYHVARIKQWLSYLRKEYDEATELFQHVRVLNNSPDIARAIQAIDIEKL
total protein half-life in vivo (h): 4.72
//
sequence record: MSQLPGLSRETRESIAMYHLRVPQTEEELERYYQFRWEMLRKPLHQPKGSERDAWDAMAHHQMVVDEQGNLVAVGRLYINADNEASIRFMAVHPDVQDKGLGTLMAMTLESVARQEGVKRVTCSAREDAVEFFAKLGFVNQGEITTPTTTPIRHFLMIKPVATLDDILHRGDWCAQLQQAWYEHIPLSEKMGVRIQQYTGQKFITTMPETGNQNPHHTLFAGSLFSLATLTGWGLIWLMLRERHLGGTIILADAHIRYSKPISGKPHAVADLGALSGDLDRLARGRKARVQMQVEIFGDETPGAVFEGTYIVLPAKPFGPYEEGGNEEE [P0ADQ2]
total protein half-life in vivo (h): 4.46
//
sequence record: MLEILYQDEWLVAVNKPSGWLVHRSWLDRDEKVVVMQTVRDQIGQHVFTAHRLDRPTSGVLLMGLSSEAGRLLAQQFEQHQIQKRYHAIVRGWLMEEAVLDYPLVEELDKIADKFAREDKGPQPAVTHYRGLATVEMPVATGRYPTTRYGLVELEPKTGRKHQLRRHLAHLRHPIIGDSKHGDLRQNRSGAEHFGLQRLMLHASQLSLTHPFTGEPLTIHAGLDDTWMQALSQFGWRGLLPENERVEFSAPSGQDGEISS [P0AA41]
total protein half-life in vivo (h): 4.49
//
sequence record: MDKIHAMQLFIKVAELESFSRAADFFALPKGSVSRQIQALEHQLGTQLLQRTTRRVKLTPEGMTYYQRAKDVLSNLSELDGLFQQDATSISGKLRIDIPPGIAKSLLLPRLSEFLYLHPGIELELSSHDRPVDILHDGFDCVIRTGALPEDGVIARPLGKLTMVNCASPHYLTRFGYPQSPDDLTSHAIVRYTPHLGVHPLGFEVASVNGVQWFKSGGMLTVNSSENYLTAGLAGLGIIQIPRIAVREALRAGRLIEVLPGYRAEPLSLSLVYPQRRELSRRVNLFMQWLAGVMKEYLD
total protein half-life in vivo (h): 4.8
//
sequence record: MTQPVLDIQQLHLSFPGFNGDVHALNNVSLQINRGEIVGLVGESGSGKSVTAMLIMRLLPTGSYCVHRGQISLLGEDVLNAREKQLRQWRGARVAMIFQEPMTALNPTRRIGLQMMDVIRHHQPISRREARAKAIDLLEEMQIPDAVEVMSRYPFELSGGMRQRVMIALAFSCEPQLIIADEPTTALDVTVQLQVLRLLKHKARASGTAVLFISHDMAVVSQLCDSVYVMYAGSVIESGVTADVIHHPRHPYTIGLLQCAPEHGVPRQLLPAIPGTVPNLTHLPDGCAFRDRCYAAGAQCENVPALTACGDNNQRCACWYPQQEVISV
total protein half-life in vivo (h): 3.49
//
sequence record: MDIVFIEQLSVITTIGVYDWEQTIEQKLVFDIEMAWDNRKAAKSDDVADCLSYADIAETVVSHVEGARFALVERVAEEVAELLLARFNSPWVRIKLSKPGAVARAANVGVIIERGNNLKENN [P0AC16]
total protein half-life in vivo (h): 5.86
//
sequence record: MIKWPWKVQESAHQTALPWQEALSIPLLTCLTEQEQSKLVTLAERFLQQKRLVPLQGFELDSLRSCRIALLFCLPVLELGLEWLDGFHEVLIYPAPFVVDDEWEDDIGLVHNQRIVQSGQSWQQGPIVLNWLDIQDSFDASGFNLIIHEVAHKLDTRNGDRASGVPFIPLREVAGWEHDLHAAMNNIQEEIELVGENAASIDAYAASDPAECFAVLSEYFFSAPELFAPRFPSLWQRFCQFYQQDPLQRLHHANDTDSFSATNVH
total protein half-life in vivo (h): 3.08
//
sequence record: MNYRIIPVTAFSQNCSLIWCEQTRLAALVDPGGDAEKIKQEVDDSGLTLMQILLTHGHLDHVGAAAELAQHYGVPVFGPEKEDEFWLQGLPAQSRMFGLEECQPLTPDRWLNEGDTISIGNVTLQVLHCPGHTPGHVVFFDDRAKLLISGDVIFKGGVGRSDFPRGDHNQLISSIKDKLLPLGDDVIFIPGHGPLSTLGYERLHNPFLQDEMPVW
total protein half-life in vivo (h): 5.7
//
sequence record: MRQTKTGILLANLGTPDAPTPEAVKRYLKQFLSDRRVVDTSRLLWWPLLRGVILPLRSPRVAKLYASVWMEGGSPLMVYSRQQQQALAQRLPEMPVALGMSYGSPSLESAVDELLAEHVDHIVVLPLYPQFSCSTVGAVWDELARILARKRSIPGISFIRDYADNHDYINALANSVRASFAKHGEPDLLLLSYHGIPQRYADEGDDYPQRCRTTTRELASALGMAPEKVMMTFQSRFGREPWLMPYTDETLKMLGEKGVGHIQVMCPGFAADCLETLEEIAEQNREVFLGAGGKKYEYIPALNATPEHIEMMANLVAAYR
total protein half-life in vivo (h): 6.11
//
sequence record: MTVTRPRAERGAFPPGTEHYGRSLLGAPLIWFPAPAASRESGLILAGTHGDENSSVVTLSCALRTLTPSLRRHHVVLCVNPDGCQLGLRANANGVDLNRNFPAANWKEGETVYRWNSAAEERDVVLLTGDKPGSEPETQALCQLIHRIQPAWVVSFHDPLACIEDPRHSELGEWLAQAFELPLVTSVGYETPGSFGSWCADLNLHCITAEFPPISSDEASEKYLFAMANLLRWHPKDAIRPS [P0ACV6]
total protein half-life in vivo (h): 4.17
